I'd be grateful if you could share measured Plasma, 37 °C %rem. at 2h (Table S23) for these entries.
# ASSAY NAME: Plasma stability assay at 37 °C via LC-MS/MS, human plasma;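 also: prodrugs at 3 µM incubated in human plasma at 37 °C, intact prodrug quantified by LC-MS/MS over time, values are means of duplicate runs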
# Format: in vitro ADME
# CONDITION: 2 h
Numbers only, in %.

- COMPOUND: "CNCCN(C(=O)O/N=C(\\C)[C@H]1CC[C@H]2[C@@H]3CCC4=CC(=O)CC[C@]4(C)[C@H]3CC[C@]12C)C1CCC1.O=C(O)C(F)(F)F [20d]"
  Plasma, 37 °C %rem. at 2h (Table S23), %: 59
- COMPOUND: "C/C(=N\\OC(=O)N(C)C[C@@H]1CCCN1)[C@H]1CC[C@H]2[C@@H]3CCC4C[C@H](O)CC[C@]4(C)[C@H]3CC[C@]12C (stereo partly drawn) [21l]"
  Plasma, 37 °C %rem. at 2h (Table S23), %: 2
- COMPOUND: "CNCCN(CCn1ccnc1)C(=O)O/N=C(\\C)[C@H]1CC[C@H]2[C@@H]3CCC4C[C@H](O)CC[C@]4(C)[C@H]3CC[C@]12C (stereo partly drawn) [21k]"
  Plasma, 37 °C %rem. at 2h (Table S23), %: 14
- COMPOUND: "C/C(=N\\OC(=O)N(C)C[C@@H]1CC2(CC2)CN1)[C@H]1CC[C@H]2[C@@H]3CCC4=CC(=O)CC[C@]4(C)[C@H]3CC[C@]12C [20q]"
  Plasma, 37 °C %rem. at 2h (Table S23), %: 15

Now take the following compound into account.
Find the measured Plasma, 37 °C %rem. at 2h (Table S23) of CNCCN(CCn1ccnc1)C(=O)O/N=C(\C)[C@H]1CC[C@H]2[C@@H]3CCC4=CC(=O)CC[C@]4(C)[C@H]3CC[C@]12C [20k] and report it.
68

* * *

# ASSAY NAME: PBS stability assay at 37 °C via LC-MS/MS
# Assay type: physicochemical
# CONDITION: PBS, 37 °C, 2 h
PROPERTY LABEL: PBS, 37 °C %rem. at 2h (Table S23)
Just the number plus its unit, please.

// worked examples, PBS, 37 °C %rem. at 2h (Table S23) included
- COMPOUND: "C/C(=N\\OC(=O)N(C)C[C@H]1CCCN1)[C@H]1CC[C@H]2[C@@H]3CCC4=CC(=O)CC[C@]4(C)[C@H]3CC[C@]12C.O=C(O)C(F)(F)F [20m]"
  PBS, 37 °C %rem. at 2h (Table S23): "11%"
- COMPOUND: "CNCCN(C(=O)O/N=C(\\C)[C@H]1CC[C@H]2[C@@H]3CCC4=CC(=O)CC[C@]4(C)[C@H]3CC[C@]12C)C1CCCC1.O=C(O)C(F)(F)F [20e]"
  PBS, 37 °C %rem. at 2h (Table S23): "34%"
- COMPOUND: "C/C(=N\\OC(=O)N(C)C[C@@H]1CC(F)(F)CN1)[C@H]1CC[C@H]2[C@@H]3CCC4=CC(=O)CC[C@]4(C)[C@H]3CC[C@]12C [20r]"
  PBS, 37 °C %rem. at 2h (Table S23): "72%"
- COMPOUND: "CNCCN(C)C(=O)O/N=C(\\C)[C@H]1CC[C@H]2[C@@H]3CCC4C[C@H](O)CC[C@]4(C)[C@H]3CC[C@]12C.O=C(O)C(F)(F)F (stereo partly drawn) [21a]"
  PBS, 37 °C %rem. at 2h (Table S23): "88%"
- COMPOUND: "C/C(=N\\OC(=O)N(C)C[C@@H]1CCCN1)[C@H]1CC[C@H]2[C@@H]3CCC4=CC(=O)CC[C@]4(C)[C@H]3CC[C@]12C.O=C(O)C(F)(F)F [20l]"
  PBS, 37 °C %rem. at 2h (Table S23): "8%"

Field: next compound
Consider the compound CNCCN(CCCN1CCOCC1)C(=O)O/N=C(\C)[C@H]1CC[C@H]2[C@@H]3CCC4=CC(=O)CC[C@]4(C)[C@H]3CC[C@]12C.O=C(O)C(F)(F)F [20i] . State its measured PBS, 37 °C %rem. at 2h (Table S23).
77%

* * *

# ASSAY NAME: Stability in PBS at room temperature via HPLC (UV)
# Type: physicochemical
# CONDITION: phosphate-buffered saline (DPBS), pH 7.03, PBS, rt; read-out: t½: PBS, rt (Table S23) (converted)
PROPERTY LABEL: half-life at 1 mg/mL (min)
One number for each entry, in min.

Answered examples (3):
- COMPOUND: "C/C(=N\\OC(=O)N(CCN(C)C)CCN(C)C)[C@H]1CC[C@H]2[C@@H]3CCC4=CC(=O)CC[C@]4(C)[C@H]3CC[C@]12C [20y]"
  UNIT OF MEASUREMENT: "min"
  half-life at 1 mg/mL: 1.2
- COMPOUND: "CNCCN(C)C(=O)O/N=C(\\C)[C@H]1CC[C@H]2[C@@H]3CCC4=CC(=O)CC[C@]4(C)[C@H]3CC[C@]12C [20a]"
  UNIT OF MEASUREMENT: "min"
  half-life at 1 mg/mL: 2810
- COMPOUND: "CNCCN(CCN(C)C)C(=O)O/N=C(\\C)[C@H]1CC[C@H]2[C@@H]3CCC4=CC(=O)CC[C@]4(C)[C@H]3CC[C@]12C [20g]"
  UNIT OF MEASUREMENT: "min"
  half-life at 1 mg/mL: 130

Retrieve half-life at 1 mg/mL measured for C/C(=N\OC(=O)N(C)C[C@@H]1C[C@H](N(C)C)CN1)[C@H]1CC[C@H]2[C@@H]3CCC4=CC(=O)CC[C@]4(C)[C@H]3CC[C@]12C [20u] and print it.
452

* * *

# ASSAY NAME: Stability in acetate buffer pH 5.0 at room temperature via HPLC (UV)
# Assay type: physicochemical
# CONDITION: pH 5, acetate buffer pH 5.0, RT, 1 mg/mL, HPLC 254 nm, read-out: t1/2 in acetate buffer at RT (Tables S5-S8) (converted)
Exercise: for every item that follows, state its recorded half-life at 1 mg/mL.

Here are 10 compounds together with their reported answers.
- COMPOUND: "C/C(=N\\OC(=O)N(CCN)CCN)[C@H]1CC[C@H]2[C@@H]3CCC4=CC(=O)CC[C@]4(C)[C@H]3CC[C@]12C [20w]"
  half-life at 1 mg/mL: "> 168 h"
- COMPOUND: "CNCCN(C(=O)O/N=C(\\C)[C@H]1CC[C@H]2[C@@H]3CCC4=CC(=O)CC[C@]4(C)[C@H]3CC[C@]12C)C1CCCC1.O=C(O)C(F)(F)F [20e]"
  half-life at 1 mg/mL: "> 168 h"
- COMPOUND: "CNCCN(CCN1CCOCC1)C(=O)O/N=C(\\C)[C@H]1CC[C@H]2[C@@H]3CCC4=CC(=O)CC[C@]4(C)[C@H]3CC[C@]12C.O=C(O)C(F)(F)F [20j]"
  half-life at 1 mg/mL: "99.4 h"
- COMPOUND: "C/C(=N\\OC(=O)N(C)C[C@@H]1C[C@H](N(C)C)CN1)[C@H]1CC[C@H]2[C@@H]3CCC4=CC(=O)CC[C@]4(C)[C@H]3CC[C@]12C [20u]"
  half-life at 1 mg/mL: "72 h"
- COMPOUND: "C/C(=N\\OC(=O)N(C)CC[C@@H]1CCCN1)[C@H]1CC[C@H]2[C@@H]3CCC4=CC(=O)CC[C@]4(C)[C@H]3CC[C@]12C.O=C(O)C(F)(F)F [20n]"
  half-life at 1 mg/mL: "> 168 h"
- COMPOUND: "CNCCN(C)C(=O)O/N=C(\\C)[C@H]1CC[C@H]2[C@@H]3CCC4=CC(=O)CC[C@]4(C)[C@H]3CC[C@]12C [20a]"
  half-life at 1 mg/mL: "> 168 h"
- COMPOUND: "C/C(=N\\OC(=O)N(C)C[C@@H]1CC2(CC2)CN1)[C@H]1CC[C@H]2[C@@H]3CCC4=CC(=O)CC[C@]4(C)[C@H]3CC[C@]12C [20q]"
  half-life at 1 mg/mL: "> 168 h"
- COMPOUND: "CNCCN(CCNC)C(=O)O/N=C(\\C)[C@H]1CC[C@H]2[C@@H]3CCC4=CC(=O)CC[C@]4(C)[C@H]3CC[C@]12C.Cl.Cl [20x]"
  half-life at 1 mg/mL: "72.2 h"
- COMPOUND: "CNCCN(C(=O)O/N=C(\\C)[C@H]1CC[C@H]2[C@@H]3CCC4=CC(=O)CC[C@]4(C)[C@H]3CC[C@]12C)C(C)C.O=C(O)C(F)(F)F [20c]"
  half-life at 1 mg/mL: "> 168 h"
- COMPOUND: "CNCCN(CCN(C)C)C(=O)O/N=C(\\C)[C@H]1CC[C@H]2[C@@H]3CCC4=CC(=O)CC[C@]4(C)[C@H]3CC[C@]12C [20g]"
  half-life at 1 mg/mL: "75.8 h"

Need half-life at 1 mg/mL for each of these compounds.
1. CNCCN(C(=O)O/N=C(\C)[C@H]1CC[C@H]2[C@@H]3CCC4=CC(=O)CC[C@]4(C)[C@H]3CC[C@]12C)C1CCC1.O=C(O)C(F)(F)F [20d]
2. C/C(=N\OC(=O)N(C)C[C@@H]1CCN1)[C@H]1CC[C@H]2[C@@H]3CCC4=CC(=O)CC[C@]4(C)[C@H]3CC[C@]12C [20o]
3. C/C(=N\OC(=O)N(C)C[C@@H]1CCCN1)[C@H]1CC[C@H]2[C@@H]3CCC4=CC(=O)CC[C@]4(C)[C@H]3CC[C@]12C.O=C(O)C(F)(F)F [20l]
4. CNC1(CN(C)C(=O)O/N=C(\C)[C@H]2CC[C@H]3[C@@H]4CCC5=CC(=O)CC[C@]5(C)[C@H]4CC[C@]23C)CCC1 [20t]

1: > 168 h; 2: > 168 h; 3: 175 h; 4: > 168 h

Give recorded half-life at 1 mg/mL. CNCCN(CCCN1CCOCC1)C(=O)O/N=C(\C)[C@H]1CC[C@H]2[C@@H]3CCC4=CC(=O)CC[C@]4(C)[C@H]3CC[C@]12C.O=C(O)C(F)(F)F [20i]
> 168 h
